Parameter: growth. Scope: all listed entries.
- Tested on: HCT-15 colon
- protocol_text: NCI-60 one-dose screen, 48 h (100 = growth as untreated, 0 = no growth, -100 = all killed)
- run_parameters: 10 µM unless noted
Compounds without any hit were thinned out: in the full panel of roughly 83,000, 20% have a hit. The source made the active and inactive calls. How the source made its calls: active means growth percent below 10; inactive means the rest.

compound	recorded_endpoint	result
O=C1c2cc3c(cc2-c2c1c1cc(Cl)c(Cl)cc1c(=O)n2C[C@H](O)CO)OCO3	growth	1.28% (active)
Oc1cc(O)c2c(=S)cc(-c3ccc(Cl)cc3)oc2c1	growth	25.4% (inactive)
NS(=O)(=O)N(c1cc(C(F)(F)F)cc(C(F)(F)F)c1)C1CCN(Cc2ccc(F)cc2)CC1	growth	24.4% (inactive)

Q: Name the recorded growth for Cc1nn(-c2nc3ccccc3[nH]2)c2c1C(c1ccc3c(c1)OCO3)CC(=O)N2 (stereo not given) .
Ans: 47.6% (inactive)

Q: Name the recorded growth for "O=c1c2cccc3c(Nc4c(F)cccc4F)ccc(c32)c2nc3ccccc3n12" .
Ans: 75.5% (inactive)

---

- System: DU-145 prostate
- protocol_text: NCI-60 one-dose screen, 48 h (100 = growth as untreated, 0 = no growth, -100 = all killed)
- run_parameters: 10 µM unless noted
This is part of a sample that, as a whole, favours compounds with a hit. Of some 83,000 tested, about 20% had one in any assay.
recorded_endpoint: growth (%)
Response body: numeric value in %, unit text excluded.

Illustrative cases are given below, each with its answer.
compound	growth [%]
CC(=O)OC1Oc2cc(C)c(C)cc2-c2oc(=O)c(-c3cc4ccc(N(C)C)cc4oc3=O)cc21 (stereo not given)	85.8
COc1cc(OC)c(/C=C/C(=O)c2c(OC)cc(OC)cc2OC)c(OC)c1	25.1
COc1ccc(/C=C2\CN(C(=O)CCN3CCC(=NO)CC3)C/C(=C\c3ccc(OC)cc3)C2=O)cc1	22.6
CNc1cc2nc3cc(NC)c(C)cc3cc2cc1C	18.5

Please look at the following compound next.
Q: Name the recorded growth for "CCOC(=O)N1CCN(c2nc(Nc3cc(C)[nH]n3)c3ccccc3n2)CC1" .
Ans: 47.5

---

- System: SR leukemia
- protocol_text: NCI-60 one-dose screen, 48 h
- run_parameters: 10 µM unless noted
- Description: Growth inhibition of the SR human tumor cell line is measured as a screen for anti-cancer activity. Cells are grown in 96 well plates and exposed to the test compound for 48 hours. Compounds are tested at a single concentration, which is 10^-5 M for most compounds. The reported endpoint is percent growth (GI% or GIPRCNT), where numbers from 0 - 100% represent growth inhibition, and numbers from -100% - 0 represent cell death. For example, a value of 40 represents 60% growth inhibition. […]
Compounds without any hit were thinned out: in the full panel of roughly 83,000, 20% have a hit. Active and inactive are the calls of the source. The calls were made as follows: active = growth percent below 10; inactive = the rest.
Return exactly one item of class 1 for active, class 0 for inactive

Q: Tell me the recorded outcome of this test for "COc1nc2c(cc1S(=O)(=O)c1ccccc1)CCc1c-2cnn1-c1ccc(Cl)cc1" .
Ans: class 0

Q: Tell me the recorded outcome of this test for "CC(=O)C1=C(O)C=C2Oc3c(C(=O)/C=C/c4ccccc4)c(O)c(C)c(O)c3[C@]2(C)C1=O" .
Ans: class 0

Q: Tell me the recorded outcome of this test for "COc1ccc(/C(=C/c2ccc3ccccc3c2)c2nn[nH]n2)cc1OC" .
Ans: class 0

Q: Tell me the recorded outcome of this test for N#CC1=C(N)Oc2c(ccc3ccccc23)C1c1cccs1 (stereo not given) .
Ans: class 1

Q: Tell me the recorded outcome of this test for "CCOC(=O)Cc1cnn(C)c1NC(=O)c1ccc(Cl)cc1NC(C)=O" .
Ans: class 0

Q: Tell me the recorded outcome of this test for "Cc1cc(OCc2ccc(C(F)(F)F)cc2)c2c(c1)C(=O)C=C(NCCN1CCCC1)C2=O" .
Ans: class 1

Q: Tell me the recorded outcome of this test for CCOC(=O)C(Cc1cc(I)c(O)c(I)c1)NC(=O)c1ccccc1 (stereo not given) .
Ans: class 0

Q: Tell me the recorded outcome of this test for "CNC(=O)c1cc(Oc2ccc3nc(NC(=O)Nc4ccc(CN5CCOCC5)c(C(F)(F)F)c4)sc3c2)ccn1" .
Ans: class 1

Q: Tell me the recorded outcome of this test for O=C1OC2C(I)C3CC2C1C3c1ccccc1 (stereo not given) .
Ans: class 0

Q: Tell me the recorded outcome of this test for "O=[N+]([O-])c1c(F)cccc1Nc1cccc(F)c1" .
Ans: class 0
